System: HDQ-P1
Test Name: normalised response (% of control), CellTox Green; higher = less cell death (100 = DMSO, 0 = benzethonium chloride kill control)
Experimental Context: incubation time: 72 h
Recorded measurements of normalised response, one per entry
Respond with the bare value in %.

Below: 3 compounds and their reported normalised response.
COc1cc([C@@H]2c3cc4c(cc3[C@@H](O[C@@H]3O[C@@H]5CO[C@@H](C)O[C@H]5[C@H](O)[C@H]3O)[C@H]3COC(=O)[C@H]23)OCO4)cc(OC)c1O [Etoposide] (10000 nM); 109
CNCc1ccc(-c2[nH]c3cc(F)cc4c3c2CCNC4=O)cc1 [Rucaparib] (100 nM); 104
Clc1ccc(Nc2nnc(Cc3ccncc3)c3ccccc23)cc1 [Vatalanib] (100 nM); 109

Read the next record carefully.
Task: Look up normalised response for this compound: N[C@@H](CSC(c1ccccc1)(c1ccccc1)c1ccccc1)C(=O)O [S-trityl-L-cysteine] (400 nM)
Output: 109

###

Tested on: MDA-MB-468
Test Name: normalised viability (% of control), CellTiter-Blue; higher = more viable cells (about 100 = DMSO control)
Experimental Context: 100 nM; incubation time: 72 h
Metric Name: normalised viability (%)
Form entry: value (%) — number only.

Consider the reported normalised viability for these compounds:
C#Cc1cccc(Nc2ncnc3cc(OCCOC)c(OCCOC)cc23)c1 [Erlotinib]; 95
CN(C)/N=N/c1[nH]cnc1C(N)=O [Dacarbazine]; 112
CC(C)Cn1cnc2c(N)nc3ccccc3c21 [Imiquimod]; 106
CCC1=C[C@@H]2CN(C1)Cc1c([nH]c3ccccc13)[C@@](C(=O)OC)(c1cc3c(cc1OC)N(C)[C@H]1[C@@](O)(C(=O)OC)[C@H](OC(C)=O)[C@]4(CC)C=CCN5CC[C@]31[C@@H]54)C2 [Vinorelbine]; 39.9

For the next question, use this compound.
Task: Consider the compound shown here: CNCc1ccc(-c2[nH]c3cc(F)cc4c3c2CCNC4=O)cc1 [Rucaparib] What is its recorded normalised viability?
Output: 110

###

Tested on: HCC1143
Test Name: normalised viability (% of control), CellTiter-Blue; higher = more viable cells (about 100 = DMSO control)
Experimental Context: 10 nM; incubation time: 72 h
Entries whose normalised viability is below 90% take True; entries at or above 90% take False.

Some entries whose results are on file:
CC(C)Cn1cnc2c(N)nc3ccccc3c21; False
O=P1(NCCCl)OCCCN1CCCl (stereo unspecified) [Ifosfamide]; True
Oc1nc(-c2ccc(C(F)(F)F)cc2)nc2c1CSCC2; True

Moving on to another molecule below.
Task: Record CCC1=C[C@@H]2CN(C1)Cc1c([nH]c3ccccc13)[C@@](C(=O)OC)(c1cc3c(cc1OC)N(C)[C@H]1[C@@](O)(C(=O)OC)[C@H](OC(C)=O)[C@]4(CC)C=CCN5CC[C@]31[C@@H]54)C2 : is its normalised viability strictly below 90%?
Output: False

###

System: CAL-51
Experimental Context: 72 h
Threshold 10 nM: EC50, CellTiter-Glo strictly smaller gives Met, otherwise Not met.

Recorded results for 4 molecules are shown here.
CN[C@@H]1C[C@H]2O[C@@](C)([C@@H]1OC)n1c3ccccc3c3c4c(c5c6ccccc6n2c5c31)C(=O)N[C@H]4O; Not met
COc1cc([C@@H]2c3cc4c(cc3[C@@H](O[C@@H]3O[C@@H]5CO[C@@H](C)O[C@H]5[C@H](O)[C@H]3O)[C@H]3COC(=O)[C@H]23)OCO4)cc(OC)c1O [Etoposide]; Not met
Oc1nc(-c2ccc(C(F)(F)F)cc2)nc2c1CSCC2; Not met
Cc1ccc(C(=O)N(CCCN)[C@@H](c2oc3cc(Cl)ccc3c(=O)c2Cc2ccccc2)C(C)C)cc1; Met

Task: Lab note: EC50, CellTiter-Glo threshold 10 nM. Does this molecule come in strictly under it? CC1(C)NC(=O)N(c2ccc([N+](=O)[O-])c(C(F)(F)F)c2)C1=O [Nilutamide]
Output: Not met

###

List of normalised response values.
Tested on: MDA-MB-436
Test Name: normalised response (% of control), CellTiter-Glo; higher = more viable cells (100 = DMSO, 0 = benzethonium chloride kill control)
Experimental Context: incubation time: 72 h
Provide only the numeric value, understood in %.

C#Cc1cccc(Nc2ncnc3cc(OCCOC)c(OCCOC)cc23)c1 [Erlotinib] (1 nM); 131

Task: For the compound C=C(c1ccc(C(=O)O)cc1)c1cc2c(cc1C)C(C)(C)CCC2(C)C [Bexarotene] (1000 nM) , what normalised response is on record?
Output: 99.4

Task: I would be grateful if you could share the reported normalised response for CC1(C)NC(=O)N(c2ccc([N+](=O)[O-])c(C(F)(F)F)c2)C1=O [Nilutamide] (1 nM) .
Output: 102

###

System: BT-549
Test Name: drug sensitivity score (DSS), CellTiter-Blue viability (DSS (AUC-based score)); higher = stronger viability inhibition; extreme values may be limits of the assay
Experimental Context: incubation time: 72 h
Metric Name: drug sensitivity score
# answer = number (no unit)

N[C@@H](CSC(c1ccccc1)(c1ccccc1)c1ccccc1)C(=O)O; 2.15
NC(=O)Nc1cc(-c2cccc(F)c2)sc1C(=O)N[C@H]1CCCNC1; 1.54

Turning now to a further record.
Task: Given CN(C)/N=N/c1[nH]cnc1C(N)=O , state its recorded drug sensitivity score.
Output: 0

###

Tested on: DU-4475
Test Name: normalised response (% of control), CellTiter-Glo; higher = more viable cells (100 = DMSO, 0 = benzethonium chloride kill control)
Experimental Context: incubation time: 72 h
Metric Name: normalised response (%)
Hi! Could you send only the number? It should be in %, unit omitted.

Cc1ccc(C(=O)Nc2ccc(CN3CCN(C)CC3)c(C(F)(F)F)c2)cc1C#Cc1cnc2cccnn12 [Ponatinib] (1000 nM); 77.4

Task: Item CCC1=C[C@@H]2CN(C1)Cc1c([nH]c3ccccc13)[C@@](C(=O)OC)(c1cc3c(cc1OC)N(C)[C@H]1[C@@](O)(C(=O)OC)[C@H](OC(C)=O)[C@]4(CC)C=CCN5CC[C@]31[C@@H]54)C2 [Vinorelbine] (10000 nM) has what recorded normalised response?
Output: 40.4

Task: normalised response for CCC1(c2ccc(N)cc2)CCC(=O)NC1=O (stereo not drawn) [Aminoglutethimide] (10000 nM) ?
Output: 101

###

Tested on: MFM-223
Test Name: normalised response (% of control), CellTox Green; higher = less cell death (100 = DMSO, 0 = benzethonium chloride kill control)
Experimental Context: incubation time: 72 h
Metric Name: normalised response (%)
Give the value in % but do not write % after it.

COc1cc([C@@H]2c3cc4c(cc3[C@@H](O[C@@H]3O[C@@H]5CO[C@@H](C)O[C@H]5[C@H](O)[C@H]3O)[C@H]3COC(=O)[C@H]23)OCO4)cc(OC)c1O [Etoposide] (1000 nM); 103

Task: I have this molecule here, Cc1ccc(-n2nc(C(C)(C)C)cc2NC(=O)Nc2ccc(OCCN3CCOCC3)c3ccccc23)cc1 [Doramapimod] (1000 nM) , and I need its recorded normalised response.
Output: 100

Task: I am curious: what normalised response value has been reported for Clc1ccc(Nc2nnc(Cc3ccncc3)c3ccccc23)cc1 [Vatalanib] (10000 nM) ?
Output: 97.1

Task: What value of normalised response has been recorded for this entry: COc1cc2nccc(Oc3ccc(NC(=O)C4(C(=O)Nc5ccc(F)cc5)CC4)cc3)c2cc1OC [Cabozantinib] (1000 nM)
Output: 93.8

Task: Bench note: what normalised response did CN(N=O)C(=O)N[C@@H](C=O)[C@@H](O)[C@H](O)[C@H](O)CO [Streptozocin] (100 nM) show?
Output: 75.2

Task: Return reported normalised response; argument: O=C(CCCCCCC(=O)Nc1ccc([C@H]2O[C@@H](CSc3nc(-c4ccccc4)c(-c4ccccc4)o3)C[C@@H](c3ccc(CO)cc3)O2)cc1)NO [Tubacin] (1000 nM)
Output: 86.1

Task: normalised response lookup needed for O=P1(NCCCl)OCCCN1CCCl (configuration not stated) [Ifosfamide] (100 nM) , thanks.
Output: 97.8

###

# maps each entry to its normalised viability
Tested on: CAL-120
Test Name: normalised viability (% of control), CellTiter-Blue; higher = more viable cells (about 100 = DMSO control)
Experimental Context: 10 nM; incubation time: 72 h
Use % as the unit, but write only the number.

O=C1CCC(N2C(=O)c3ccccc3C2=O)C(=O)N1 (centres undefined) [Thalidomide]; 111
NCC(=O)CCC(=O)O [Aminolevulinic acid]; 89.6
CCC1(c2ccc(N)cc2)CCC(=O)NC1=O (centres undefined) [Aminoglutethimide]; 111

Note: attention shifts to another entry.
Task: Please look up its normalised viability: CC(C)Cn1cnc2c(N)nc3ccccc3c21 [Imiquimod]
Output: 97.9

Sourced from the supplement of paper PMC4862054
